assay: Selectivity index, ratio of CC50 for golden hamster BHK21 cells to EC50 for Yellow fever virus 17D; format: toxicity; settings: read-out: Ratio CC50/EC50
measured_endpoint: selectivity ratio

# molecule, measured_endpoint, reported
rows = [
    ("NS(=O)(=O)c1ccc(N2N=C(c3ccccc3)CC2c2ccccc2Cl)cc1 (stereo not drawn)", "selectivity ratio", 5.8),
    ("NS(=O)(=O)c1ccc(N2N=C(c3ccc(OCc4ccccc4)cc3)CC2c2ccccc2F)cc1 (stereo not drawn)", "selectivity ratio", 50),
    ("Cc1ccc(C2CC(c3ccc(Oc4ccccc4)cc3)=NN2c2ccc(S(N)(=O)=O)cc2)cc1 (stereo not drawn)", "selectivity ratio", 5),
    ("NS(=O)(=O)c1ccc(N2N=C(c3ccc(OCc4ccccc4)cc3)CC2c2cccc(Cl)c2)cc1 (stereo not drawn)", "selectivity ratio", 22.5),
    ("Cc1ccc(C2CC(c3ccccc3)=NN2c2ccc(S(N)(=O)=O)cc2)cc1 (stereo not drawn)", "selectivity ratio", 3.6),
    ("Cc1ccccc1C1CC(c2ccccc2)=NN1c1ccc(S(N)(=O)=O)cc1 (stereo not drawn)", "selectivity ratio", 6.4),
    ("NS(=O)(=O)c1ccc(N2N=C(c3ccc(Oc4ccccc4)cc3)CC2c2cccc(F)c2)cc1 (stereo not drawn)", "selectivity ratio", 5.6),
    ("NS(=O)(=O)c1ccc(N2N=C(c3ccccc3)CC2c2ccc(F)cc2)cc1 (stereo not drawn)", "selectivity ratio", 5),
]

###

test: Cytotoxicity against African green monkey Vero 76 cells assessed as decrease in cell viability after 48 to 96 hrs by MTT assay; assay type: cell-based; conditions: chlorocebus sabaeus

# compound, unit_info, limit_qualifier, CC50
rows = [
    ("NS(=O)(=O)c1ccc(N2N=C(c3ccc(OCc4ccccc4)cc3)CC2c2cccc(Cl)c2)cc1 (centres undefined)", "µM", "=", 85),
    ("Cc1ccc(C2CC(c3ccc(Oc4ccccc4)cc3)=NN2c2ccc(S(N)(=O)=O)cc2)cc1 (centres undefined)", "µM", "=", 86),
    ("NS(=O)(=O)c1ccc(N2N=C(c3ccc(Oc4ccccc4)cc3)CC2c2ccccc2)cc1 (centres undefined)", "µM", "=", 85),
    ("Cc1cccc(C2CC(c3ccccc3)=NN2c2ccc(S(N)(=O)=O)cc2)c1 (centres undefined)", "µM", "=", 25),
    ("NS(=O)(=O)c1ccc(N2N=C(c3ccc(OCc4ccccc4)cc3)CC2c2ccc(F)cc2)cc1 (centres undefined)", "µM", "=", 90),
    ("NS(=O)(=O)c1ccc(N2N=C(c3ccc(OCc4ccccc4)cc3)CC2c2ccccc2)cc1 (centres undefined)", "µM", ">", 100),
    ("Cc1cc(CCCOc2c(C)cc(-c3noc(C(F)(F)F)n3)cc2C)on1", "µM", "=", 83),
    ("O=c1cnn([C@@H]2O[C@H](CO)[C@@H](O)[C@H]2O)c(=O)[nH]1", "µM", "=", 16),
    ("Cc1cccc(C2CC(c3ccc(OCc4ccccc4)cc3)=NN2c2ccc(S(N)(=O)=O)cc2)c1 (centres undefined)", "µM", "=", 100),
    ("NS(=O)(=O)c1ccc(N2N=C(c3ccccc3)CC2c2ccccc2Cl)cc1 (centres undefined)", "µM", "=", 26),
    ("NS(=O)(=O)c1ccc(N2N=C(c3ccc(Oc4ccccc4)cc3)CC2c2ccccc2F)cc1 (centres undefined)", "µM", "=", 96),
    ("Cc1ccccc1C1CC(c2ccc(OCc3ccccc3)cc2)=NN1c1ccc(S(N)(=O)=O)cc1 (centres undefined)", "µM", "=", 100),
    ("NS(=O)(=O)c1ccc(N2N=C(c3ccccc3)CC2c2ccc(Cl)cc2)cc1 (centres undefined)", "µM", "=", 21),
    ("Cc1ccccc1C1CC(c2ccc(Oc3ccccc3)cc2)=NN1c1ccc(S(N)(=O)=O)cc1 (centres undefined)", "µM", "=", 90),
    ("NS(=O)(=O)c1ccc(N2N=C(c3ccc(OCc4ccccc4)cc3)CC2c2cccc(F)c2)cc1 (centres undefined)", "µM", "=", 90),
    ("NS(=O)(=O)c1ccc(N2N=C(c3ccc(Oc4ccccc4)cc3)CC2c2cccc(Cl)c2)cc1 (centres undefined)", "µM", "=", 88),
    ("NS(=O)(=O)c1ccc(N2N=C(c3ccc(Oc4ccccc4)cc3)CC2c2ccccc2Cl)cc1 (centres undefined)", "µM", "=", 29),
    ("NS(=O)(=O)c1ccc(N2N=C(c3ccccc3)CC2c2ccc(F)cc2)cc1 (centres undefined)", "µM", "=", 23),
    ("NS(=O)(=O)c1ccc(N2N=C(c3ccc(OCc4ccccc4)cc3)CC2c2ccccc2F)cc1 (centres undefined)", "µM", ">", 100),
]

###

system: Bovine viral diarrhea virus 1; assay: Antiviral activity against Bovine viral diarrhea virus NADL ATCC VR 534 infected in bovine MDBK cells assessed as protection against virus-induced cytopathic effect after 3 to 4 days by MTT assay; type: functional, organism-based, Bovine viral diarrhea virus 1-NADL; conditions: Bovine viral diarrhea virus isolates and strains, ATCC VR 534, MDBK
pEC50: −log10 of the molar value.
Let's look at some compounds and their measured pEC50.
measured_endpoint: pEC50

# compound, target_desc, limit_qualifier, reported
measured = [
    ("Cc1ccccc1C1CC(c2ccc(OCc3ccccc3)cc2)=NN1c1ccc(S(N)(=O)=O)cc1 (stereo not given)", "Bovine viral diarrhea virus 1", "<", 4.00),
    ("NS(=O)(=O)c1ccc(N2N=C(c3ccc(OCc4ccccc4)cc3)CC2c2ccccc2F)cc1 (stereo not given)", "Bovine viral diarrhea virus 1", "=", 4.28),
    ("NS(=O)(=O)c1ccc(N2N=C(c3ccc(OCc4ccccc4)cc3)CC2c2cccc(Cl)c2)cc1 (stereo not given)", "Bovine viral diarrhea virus 1", "=", 5.26),
    ("NS(=O)(=O)c1ccc(N2N=C(c3ccccc3)CC2c2ccccc2F)cc1 (stereo not given)", "Bovine viral diarrhea virus 1", "<", 4.72),
    ("NS(=O)(=O)c1ccc(N2N=C(c3ccc(Oc4ccccc4)cc3)CC2c2ccccc2Cl)cc1 (stereo not given)", "Bovine viral diarrhea virus 1", "<", 5.30),
]

###

test: Cytotoxicity against African green monkey Vero 76 cells assessed as decrease in cell viability after 5 days by MTT assay; type: cell-based; settings: chlorocebus sabaeus
Let's look at some molecules and their measured CC50 at 120 h.
measured_endpoint: CC50 at 120 h (µM)

# molecule, measured_endpoint, reported
rows = [
    ("Cc1cccc(C2CC(c3ccc(Oc4ccccc4)cc3)=NN2c2ccc(S(N)(=O)=O)cc2)c1 (stereo not given)", "CC50 at 120 h", 14),
    ("Cc1ccc(C2CC(c3ccc(Oc4ccccc4)cc3)=NN2c2ccc(S(N)(=O)=O)cc2)cc1 (stereo not given)", "CC50 at 120 h", 20),
    ("NS(=O)(=O)c1ccc(N2N=C(c3ccc(Oc4ccccc4)cc3)CC2c2ccccc2)cc1 (stereo not given)", "CC50 at 120 h", 35),
    ("Cc1ccccc1C1CC(c2ccc(Oc3ccccc3)cc2)=NN1c1ccc(S(N)(=O)=O)cc1 (stereo not given)", "CC50 at 120 h", 14),
    ("NS(=O)(=O)c1ccc(N2N=C(c3ccc(OCc4ccccc4)cc3)CC2c2cccc(F)c2)cc1 (stereo not given)", "CC50 at 120 h", 25),
]

###

experiment: Selectivity index, ratio of CC50 for African green monkey Vero 76 cells to EC50 for Human coxsackievirus B5 Faulkner; assay type: toxicity; conditions: read-out: Ratio CC50/EC50
measured_endpoint: selectivity ratio

# molecule, measured_endpoint, reported
measured = [
    ("NS(=O)(=O)c1ccc(N2N=C(c3ccc(Oc4ccccc4)cc3)CC2c2ccccc2F)cc1 (centres undefined)", "selectivity ratio", 13.7),
    ("NS(=O)(=O)c1ccc(N2N=C(c3ccc(Oc4ccccc4)cc3)CC2c2cccc(F)c2)cc1 (centres undefined)", "selectivity ratio", 6.7),
    ("Cc1cccc(C2CC(c3ccc(OCc4ccccc4)cc3)=NN2c2ccc(S(N)(=O)=O)cc2)c1 (centres undefined)", "selectivity ratio", 12.5),
    ("NS(=O)(=O)c1ccc(N2N=C(c3ccc(Oc4ccccc4)cc3)CC2c2ccccc2Cl)cc1 (centres undefined)", "selectivity ratio", 2.8),
    ("NS(=O)(=O)c1ccc(N2N=C(c3ccc(Oc4ccccc4)cc3)CC2c2ccccc2)cc1 (centres undefined)", "selectivity ratio", 24.3),
    ("NS(=O)(=O)c1ccc(N2N=C(c3ccc(Oc4ccccc4)cc3)CC2c2ccc(F)cc2)cc1 (centres undefined)", "selectivity ratio", 4.2),
    ("Cc1ccc(C2CC(c3ccc(OCc4ccccc4)cc3)=NN2c2ccc(S(N)(=O)=O)cc2)cc1 (centres undefined)", "selectivity ratio", 7.7),
    ("NS(=O)(=O)c1ccc(N2N=C(c3ccc(OCc4ccccc4)cc3)CC2c2cccc(F)c2)cc1 (centres undefined)", "selectivity ratio", 10.6),
    ("Cc1cc(CCCOc2c(C)cc(-c3noc(C(F)(F)F)n3)cc2C)on1", "selectivity ratio", 16000),
]
